HPK1 (Homo sapiens (Human), UniProt Q92918) pIC50, compiled from various sources.
pIC50: −log10 of the molar value.

COMPOUND: O=C1NCc2c(-c3cnc4cc(F)ccn34)ccc(Nc3cccc(N4CCCC4=O)n3)c21
QUALIFIER_SIGN: <
pIC50: 6.00

COMPOUND: COc1cccc(F)c1-c1cccc(C(=O)Nc2ccc3c(nc(C)n3C)c2N2CCC[C@H]2CN)[n+]1[O-]
QUALIFIER_SIGN: >
pIC50: 7.00

COMPOUND: COc1cc2c(cc1Nc1ncc3ccc(NC4CC(OC)C4)cc3n1)CN(C)CC2 (stereo not drawn)
QUALIFIER_SIGN: =
pIC50: 6.63

COMPOUND: CC(=O)N1CCCC1c1ccc(F)c(-c2cc(Nc3ccc(N4CCC(O)CC4)cn3)c3c(=O)[nH]ccc3n2)c1 (stereo not drawn)
QUALIFIER_SIGN: ≥
pIC50: 7.00

COMPOUND: COCCN1CCc2cc(OC)c(Nc3ncc(C(N)=O)c(Nc4ccccc4Br)n3)cc2C1
QUALIFIER_SIGN: =
pIC50: 9.36

COMPOUND: O=C1NCc2c(-c3cnc4cnccn34)ccc(Nc3ccc(N4CC5(COC5)C4)cn3)c21
QUALIFIER_SIGN: >
pIC50: 7.00

COMPOUND: CC[C@@H]1CN(c2c(NC(=O)c3ccc(=O)n(-c4c(F)cccc4F)n3)cc(F)c3c2cnn3C(C)C)C[C@@H]1N
QUALIFIER_SIGN: >
pIC50: 7.00

COMPOUND: CC1(C)CN(c2c(NC(=O)c3ccc(=O)n(-c4c(F)cccc4F)n3)ccc3c2cnn3[C@@H]2CCOC2)C[C@H]1N
QUALIFIER_SIGN: >
pIC50: 7.00

COMPOUND: Cc1c(-c2c(F)c(N)c3cnc(Nc4cc5c(cc4F)CCN(C)C5)nc3c2Cl)cnc2c1NCCO2
QUALIFIER_SIGN: =
pIC50: 8.44

COMPOUND: COc1cc2c(cc1Nc1ncc3ccc(N[C@H]4CCN(C(=O)C5CC5)C4)cc3n1)CN(C)CC2
QUALIFIER_SIGN: =
pIC50: 6.27

COMPOUND: COc1cc(F)ccc1Nc1ncc2c(N)c(F)c(-c3cnc4c(c3C)NCCO4)cc2n1
QUALIFIER_SIGN: =
pIC50: 9.29

COMPOUND: O=C1NCc2c(-c3cnc4cc(F)ccn34)ccc(Nc3ccc(N4CCC[C@H](O)C4)cn3)c21
QUALIFIER_SIGN: >
pIC50: 7.00

COMPOUND: COc1ccc(S(C)(=O)=O)cc1Nc1ncc(C(N)=O)c(Nc2cccc3c2CCN(C)C3)n1
QUALIFIER_SIGN: =
pIC50: 6.96

COMPOUND: CC(C)n1ncc2c(N3C[C@@H](C)[C@@H](N)C3)c(NC(=O)c3ccc(=O)n(-c4c(F)cccc4F)n3)cc(F)c21
QUALIFIER_SIGN: >
pIC50: 7.00

###

HPK1 (Homo sapiens (Human), UniProt Q92918) pIC50, compiled from various sources.
pIC50: −log10 of the molar value.
Please note: 1 applies when pIC50 is 8 or greater, and -1 applies otherwise.

MOLECULE: COc1cc2c(cc1Nc1ncc(C(N)=O)c(NC3C[C@@H]4CC[C@H]3C4)n1)CN(C)CC2 (stereo partly drawn)
SUBJECT_OF_TEST: HPK1 (Homo sapiens (Human), UniProt Q92918)
CLASSIFICATION: 1
--
MOLECULE: Cc1cccc(F)c1Nc1nc(Nc2cnn(C)c2)ncc1C(N)=O
SUBJECT_OF_TEST: HPK1 (Homo sapiens (Human), UniProt Q92918)
CLASSIFICATION: -1
--
MOLECULE: CCS(=O)(=O)N1CC(n2cc(Oc3nc(-c4cc(C)c5c(c4)CN(C)CC5)cnc3N)cn2)C1
SUBJECT_OF_TEST: HPK1 (Homo sapiens (Human), UniProt Q92918)
CLASSIFICATION: -1
--
MOLECULE: COc1cc2c(cc1Nc1ncc(C(N)=O)c(Nc3cn(C)nc3C3CC3)n1)CN(C)CC2
SUBJECT_OF_TEST: HPK1 (Homo sapiens (Human), UniProt Q92918)
CLASSIFICATION: 1
--
MOLECULE: Cc1cc(-c2cnc3[nH]cc(-c4ccc(C(=O)N(C)C)cc4)c3n2)cc2c1N1CCN(C)C[C@@H]1CC2
SUBJECT_OF_TEST: HPK1 (Homo sapiens (Human), UniProt Q92918)
CLASSIFICATION: -1
--
MOLECULE: COc1cc2c(cc1Nc1ncc(C(N)=O)c(Nc3c(F)cccc3C3CCOCC3)n1)CN(C)CC2
SUBJECT_OF_TEST: HPK1 (Homo sapiens (Human), UniProt Q92918)
CLASSIFICATION: 1
--
MOLECULE: Cc1n[nH]cc1-c1cc2c(-c3ccc4c(c3)OCC3CN(C)CCN43)n[nH]c2cc1C#N (stereo not drawn)
SUBJECT_OF_TEST: HPK1 (Homo sapiens (Human), UniProt Q92918)
CLASSIFICATION: 1
--
MOLECULE: COc1cc2c(cc1Nc1ncc3ccc(N4CC(O)(C(F)(F)F)C4)cc3n1)CN(C)CC2 (racemic)
SUBJECT_OF_TEST: HPK1 (Homo sapiens (Human), UniProt Q92918)
CLASSIFICATION: -1
--
MOLECULE: Cc1c(-c2c(F)c(N)c3cnc(Nc4ccc5c(c4)CN(C)CC54CC4)nc3c2Cl)cnc2c1NCCO2
SUBJECT_OF_TEST: HPK1 (Homo sapiens (Human), UniProt Q92918)
CLASSIFICATION: 1

###

HPK1 (Homo sapiens (Human), UniProt Q92918) IC50, compiled from various sources.

COMPOUND: O=C1NCc2c(-c3cnn4cccnc34)ccc(Nc3ccc(N4CCNCC4)cn3)c21
IC50: < 100 nM
--
COMPOUND: COC[C@H]1CN(c2ccc(Nc3cnc(-c4ccnc5c4ccn5C)c4c3C(=O)NC4)nc2)CC[C@@H]1O
IC50: < 100 nM
--
COMPOUND: Cc1cc(-c2c[nH]c3ncc(-c4cc(C)c5c(c4)CC[C@H]4CN(C)CCN54)nc23)ccc1C(=O)N(C)C
IC50: 47 nM
--
COMPOUND: Cn1cc([C@@H]2C[C@H]2C(=O)Nc2ncc(C(N)=O)c(Nc3ccccc3Br)n2)cn1 (racemic)
IC50: 370 nM
--
COMPOUND: O=c1[nH]ccc2nc(-c3cc4c(cc3F)CCC4N3CC4(CCC4)C3)cc(Nc3ccc(N4CCC(O)CC4)cn3)c12 (stereo not drawn)
IC50: 100 to 1000 nM
--
COMPOUND: CN(C)CCc1nc(Nc2cnc(-c3ccnc4c3ccn4C)c3c2C(=O)NC3)ccc1C1CCOCC1
IC50: ≤ 100 nM
--
COMPOUND: CC/C(Nc1cnn(C)c1)=C1/C(=O)Nc2cnc(-c3c(F)cccc3OC)cc21
IC50: < 50 nM
--
COMPOUND: CN1CCN2c3ccc(-c4n[nH]c5cc(C#N)c(-c6c(F)cc(NC(=O)CC#N)cc6F)cc45)cc3OCC2C1 (stereo not drawn)
IC50: ≤ 10 nM
--
COMPOUND: Nc1c(-c2nc3ccc(N4CCNCC4)cc3[nH]2)c(=O)[nH]c2sccc12
IC50: ≤ 50 nM
--
COMPOUND: CN1CCN(c2ccc(Nc3ccc(-c4ccccc4)c4c3C(=O)NC4)nc2)CC1
IC50: < 1000 nM
--
COMPOUND: C[C@@H]1CN(c2c(NC(=O)c3ccc(=O)n(-c4c(F)cccc4F)n3)ccc3nn(C45CCC(CC4)CC5)cc23)C[C@@H]1N
IC50: < 100 nM
--
COMPOUND: C[C@H]1CCn2ncc(-c3ccc(Nc4ccc(N5CCN(C)CC5)cn4)c4c3CNC4=O)c2C1
IC50: < 100 nM
--
COMPOUND: COc1cc2c(cc1Nc1ncc3ccc(-c4ccc5c(c4)CCN5)cc3n1)CNCC2
IC50: 49.2 nM
--
COMPOUND: Nc1c(-c2nc3ccc(N4CCOCC4)cc3[nH]2)c(=O)[nH]c2sccc12
IC50: ≤ 50 nM
--
COMPOUND: Cn1ccc2c(-c3ncc(Nc4ccc(N5CCC[C@@H](C(C)(C)O)C5)cn4)c4c3CNC4=O)cccc21
IC50: < 100 nM
--
COMPOUND: Cc1ccncc1Nc1ncc2c(n1)N1CCN=C1C(c1cc(NC(=O)c3cc(C(F)(F)F)ccn3)ccc1C)=C2
IC50: < 100 nM
--
COMPOUND: COc1cc2c(cc1Nc1ncc(C(N)=O)c(Nc3ccccc3Br)n1)CN(C(=O)C1(C(F)(F)F)CCC1)CC2
IC50: 27.7 nM
--
COMPOUND: CN(C)CCOc1ccn2c(-c3ccc(Nc4ccc(N5CCC(F)C(O)C5)cn4)c4c3CNC4=O)cnc2c1 (stereo not drawn)
IC50: 100 to 1000 nM
--
COMPOUND: CNc1ncc2c(n1)N1CCN=C1C(c1cc(NC(=O)c3cc(C(F)(F)F)ccn3)ccc1F)=C2
IC50: 100 to 10000 nM
--
COMPOUND: Nc1c(-c2nc3ccc(N4CCN(C5COC5)CC4)cc3[nH]2)c(=O)[nH]c2sccc12
IC50: ≤ 50 nM
--
COMPOUND: COc1cc2c(cc1Nc1ncc3ccc(OCc4ccc5c(c4)CNC5)cc3n1)CN(C)CC2
IC50: 4.67 nM
--
COMPOUND: Cc1ccc2c(-c3ccc(Nc4ccc(N5CCN(C)CC5)cn4)c4c3CNC4=O)cnn2c1
IC50: < 100 nM
--
COMPOUND: COc1cc2c(cc1Nc1ncc(C(N)=O)c(N[C@@H]3CCc4ccccc43)n1)CN(C)CC2
IC50: 4.74 nM
--
COMPOUND: Cc1cc(-c2cnc(N)c(Oc3cnn(CC4CCOCC4)c3)n2)cc2c1CCN(C)C2
IC50: 37 nM
--
COMPOUND: COc1cc2c(cc1Nc1ncc3ccc(NC4CCN(C)C4=O)cc3n1)CN(C)CC2 (racemic)
IC50: 97.6 nM
--
COMPOUND: C/C(Nc1cc2n(n1)CC(=O)N(C(C)C)C2)=C1/C(=O)Nc2cnc(-c3c(C)cccc3F)cc21
IC50: < 50 nM
--
COMPOUND: Cc1cccc(F)c1-n1nc2c(-c3ccc(N4CCN(C)CC4=O)cc3)n[nH]c2cc1=O
IC50: 500 to 2000 nM
--
COMPOUND: COCCn1c(C)nc2c(N3CC[C@H](N)C3)c(NC(=O)c3ccc(=O)n(-c4c(F)cccc4F)n3)ccc21
IC50: < 100 nM
--
COMPOUND: O=C1NCc2c(-c3cnc4cc(F)ccn34)ccc(Nc3cccc(N4CC[C@@H]5CNC[C@@H]54)n3)c21
IC50: < 100 nM
--
COMPOUND: COc1cc2c(cc1Nc1ncc3c(N)c(F)c(-c4cnc5c(c4C)NCCO5)cc3n1)CN(C)CC21CC1
IC50: 0.163 nM
